pIC50 for assorted compounds
# tested system: Menin/Histone-lysine N-methyltransferase MLL (Homo sapiens)
# Sequence (O00255 whole entry): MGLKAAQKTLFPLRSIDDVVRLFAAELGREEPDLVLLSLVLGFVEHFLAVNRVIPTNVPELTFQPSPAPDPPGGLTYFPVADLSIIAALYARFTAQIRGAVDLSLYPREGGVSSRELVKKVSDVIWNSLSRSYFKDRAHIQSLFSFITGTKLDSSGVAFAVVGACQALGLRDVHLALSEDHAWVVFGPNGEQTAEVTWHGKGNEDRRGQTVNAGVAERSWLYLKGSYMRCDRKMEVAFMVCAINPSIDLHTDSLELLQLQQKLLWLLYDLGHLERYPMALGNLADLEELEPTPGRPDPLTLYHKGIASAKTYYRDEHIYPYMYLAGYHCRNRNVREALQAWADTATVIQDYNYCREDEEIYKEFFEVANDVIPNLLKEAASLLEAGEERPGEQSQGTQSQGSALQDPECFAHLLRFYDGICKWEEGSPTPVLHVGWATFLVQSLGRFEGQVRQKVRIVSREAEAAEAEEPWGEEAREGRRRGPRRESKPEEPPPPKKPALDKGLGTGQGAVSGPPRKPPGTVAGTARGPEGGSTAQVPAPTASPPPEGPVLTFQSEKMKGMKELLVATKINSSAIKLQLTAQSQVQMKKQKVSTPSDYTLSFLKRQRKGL
# Sequence (Q03164 1-2718 partner limits assumed): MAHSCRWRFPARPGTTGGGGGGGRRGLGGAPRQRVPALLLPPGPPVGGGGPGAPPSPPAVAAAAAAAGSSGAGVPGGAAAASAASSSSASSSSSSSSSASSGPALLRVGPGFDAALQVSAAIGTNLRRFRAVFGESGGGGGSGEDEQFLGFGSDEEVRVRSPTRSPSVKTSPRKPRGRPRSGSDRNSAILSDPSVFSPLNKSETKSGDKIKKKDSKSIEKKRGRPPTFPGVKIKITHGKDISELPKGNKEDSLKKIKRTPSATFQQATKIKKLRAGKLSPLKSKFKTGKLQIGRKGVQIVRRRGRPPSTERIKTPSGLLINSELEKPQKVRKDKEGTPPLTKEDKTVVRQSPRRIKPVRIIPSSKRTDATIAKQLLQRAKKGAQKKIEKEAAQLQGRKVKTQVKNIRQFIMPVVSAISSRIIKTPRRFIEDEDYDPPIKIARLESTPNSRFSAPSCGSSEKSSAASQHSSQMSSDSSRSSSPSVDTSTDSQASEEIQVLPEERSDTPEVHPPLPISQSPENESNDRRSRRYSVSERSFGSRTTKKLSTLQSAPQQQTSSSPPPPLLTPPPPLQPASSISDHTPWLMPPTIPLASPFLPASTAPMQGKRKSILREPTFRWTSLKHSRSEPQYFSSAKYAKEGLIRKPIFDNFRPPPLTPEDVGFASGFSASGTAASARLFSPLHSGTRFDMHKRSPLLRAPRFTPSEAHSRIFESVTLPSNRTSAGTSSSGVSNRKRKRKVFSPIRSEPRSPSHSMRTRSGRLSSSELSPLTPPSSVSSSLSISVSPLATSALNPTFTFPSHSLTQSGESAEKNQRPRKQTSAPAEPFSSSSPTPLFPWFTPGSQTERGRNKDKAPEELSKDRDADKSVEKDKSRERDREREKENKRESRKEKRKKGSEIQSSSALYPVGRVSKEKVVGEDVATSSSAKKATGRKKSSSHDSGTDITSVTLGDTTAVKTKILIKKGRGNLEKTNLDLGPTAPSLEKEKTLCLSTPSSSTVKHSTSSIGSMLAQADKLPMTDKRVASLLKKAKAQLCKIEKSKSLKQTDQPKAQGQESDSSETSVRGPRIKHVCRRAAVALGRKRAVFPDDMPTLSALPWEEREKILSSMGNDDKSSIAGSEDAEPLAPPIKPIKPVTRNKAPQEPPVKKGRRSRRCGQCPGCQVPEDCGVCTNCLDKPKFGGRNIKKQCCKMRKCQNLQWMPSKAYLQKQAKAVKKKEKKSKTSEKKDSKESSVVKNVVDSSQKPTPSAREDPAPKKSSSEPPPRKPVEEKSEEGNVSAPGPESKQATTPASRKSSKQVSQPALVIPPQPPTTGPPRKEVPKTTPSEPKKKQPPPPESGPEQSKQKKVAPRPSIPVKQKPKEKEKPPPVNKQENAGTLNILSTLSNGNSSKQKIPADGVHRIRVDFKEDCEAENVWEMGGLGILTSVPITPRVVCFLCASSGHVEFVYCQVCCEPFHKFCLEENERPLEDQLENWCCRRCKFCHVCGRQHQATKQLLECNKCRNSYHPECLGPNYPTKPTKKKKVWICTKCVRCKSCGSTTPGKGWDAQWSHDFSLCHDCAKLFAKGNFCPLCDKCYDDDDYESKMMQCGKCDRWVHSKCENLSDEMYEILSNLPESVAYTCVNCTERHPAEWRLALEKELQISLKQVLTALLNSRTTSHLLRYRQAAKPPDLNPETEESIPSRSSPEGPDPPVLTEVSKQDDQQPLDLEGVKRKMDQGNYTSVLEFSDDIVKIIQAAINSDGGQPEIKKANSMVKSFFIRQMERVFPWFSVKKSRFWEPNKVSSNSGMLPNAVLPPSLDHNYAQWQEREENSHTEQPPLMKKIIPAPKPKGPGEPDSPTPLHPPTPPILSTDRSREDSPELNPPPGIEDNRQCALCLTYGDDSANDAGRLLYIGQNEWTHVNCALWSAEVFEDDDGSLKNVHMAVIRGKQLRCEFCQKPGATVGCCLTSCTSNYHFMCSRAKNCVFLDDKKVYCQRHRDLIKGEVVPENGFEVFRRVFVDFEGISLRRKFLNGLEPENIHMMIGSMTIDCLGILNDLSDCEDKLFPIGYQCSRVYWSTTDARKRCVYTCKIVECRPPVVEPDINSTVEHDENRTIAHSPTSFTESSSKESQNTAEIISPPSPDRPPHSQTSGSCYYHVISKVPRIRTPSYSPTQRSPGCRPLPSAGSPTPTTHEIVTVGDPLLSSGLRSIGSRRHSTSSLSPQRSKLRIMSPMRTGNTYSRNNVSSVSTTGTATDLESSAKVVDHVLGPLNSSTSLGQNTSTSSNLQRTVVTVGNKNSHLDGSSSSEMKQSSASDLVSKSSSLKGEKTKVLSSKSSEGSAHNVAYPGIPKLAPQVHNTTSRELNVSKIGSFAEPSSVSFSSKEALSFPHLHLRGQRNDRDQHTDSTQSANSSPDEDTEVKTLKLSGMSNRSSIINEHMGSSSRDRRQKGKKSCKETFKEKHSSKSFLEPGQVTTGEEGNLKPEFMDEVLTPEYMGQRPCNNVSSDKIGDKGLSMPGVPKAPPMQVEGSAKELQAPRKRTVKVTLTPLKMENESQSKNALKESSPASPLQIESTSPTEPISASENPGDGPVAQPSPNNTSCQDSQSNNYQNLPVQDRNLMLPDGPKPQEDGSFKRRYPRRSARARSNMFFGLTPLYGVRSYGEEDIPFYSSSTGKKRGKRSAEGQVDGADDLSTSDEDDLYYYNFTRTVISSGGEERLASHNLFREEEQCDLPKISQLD
# Sequence (Q03164 2719-3969 partner limits assumed): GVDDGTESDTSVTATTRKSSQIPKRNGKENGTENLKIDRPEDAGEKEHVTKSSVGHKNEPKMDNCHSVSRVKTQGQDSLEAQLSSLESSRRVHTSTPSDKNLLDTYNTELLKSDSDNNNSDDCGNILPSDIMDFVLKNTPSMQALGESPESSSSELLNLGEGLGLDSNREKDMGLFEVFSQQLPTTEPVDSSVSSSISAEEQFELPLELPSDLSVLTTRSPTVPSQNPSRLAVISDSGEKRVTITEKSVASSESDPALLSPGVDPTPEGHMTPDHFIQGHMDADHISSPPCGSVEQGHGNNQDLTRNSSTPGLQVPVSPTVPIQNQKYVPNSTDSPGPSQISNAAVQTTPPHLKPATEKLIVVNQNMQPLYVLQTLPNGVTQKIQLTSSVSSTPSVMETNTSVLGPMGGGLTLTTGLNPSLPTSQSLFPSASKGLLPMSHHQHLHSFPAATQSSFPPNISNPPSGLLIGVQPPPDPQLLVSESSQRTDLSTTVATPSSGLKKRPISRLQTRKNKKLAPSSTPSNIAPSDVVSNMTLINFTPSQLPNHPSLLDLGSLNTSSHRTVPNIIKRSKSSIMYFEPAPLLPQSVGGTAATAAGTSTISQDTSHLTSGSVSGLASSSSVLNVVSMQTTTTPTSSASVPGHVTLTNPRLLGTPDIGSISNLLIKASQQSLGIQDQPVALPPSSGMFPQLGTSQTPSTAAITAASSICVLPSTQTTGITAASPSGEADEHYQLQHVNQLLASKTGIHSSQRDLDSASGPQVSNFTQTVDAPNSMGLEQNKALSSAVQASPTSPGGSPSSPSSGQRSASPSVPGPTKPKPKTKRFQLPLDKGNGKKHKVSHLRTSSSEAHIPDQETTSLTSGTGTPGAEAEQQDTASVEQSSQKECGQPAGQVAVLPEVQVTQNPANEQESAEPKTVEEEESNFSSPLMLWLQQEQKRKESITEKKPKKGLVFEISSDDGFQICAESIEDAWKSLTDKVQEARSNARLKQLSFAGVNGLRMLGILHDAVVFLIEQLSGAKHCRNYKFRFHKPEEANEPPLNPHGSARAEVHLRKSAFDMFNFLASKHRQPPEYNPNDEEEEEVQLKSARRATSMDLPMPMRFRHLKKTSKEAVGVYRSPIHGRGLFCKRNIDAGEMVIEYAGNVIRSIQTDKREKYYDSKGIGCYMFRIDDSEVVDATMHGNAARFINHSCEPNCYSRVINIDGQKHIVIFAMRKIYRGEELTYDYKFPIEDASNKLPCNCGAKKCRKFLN
# protocol: Inhibition of Menin to MLL (unknown origin) protein-protein interaction
# Assay type: protein assay
pIC50: −log10 of the molar value.
measurement type: pIC50

# compound, measurement type, numeric readout
records = [
    ("O=c1cccc2n1C[C@@H]1C[C@H]2CN(CC(O)CSCc2ccccc2)C1 (stereo partly drawn)", "pIC50", 7.40),
    ("C[C@@]12CN(CC(O)CCCc3ccccc3)C[C@@](C)(C1)c1cccc(=O)n1C2 (stereo partly drawn)", "pIC50", 9.00),
    ("CC(C)N(C(=O)c1cc(F)ccc1Oc1cncnc1N1CC2(CCN(C[C@H]3CC[C@H](NS(C)(=O)=O)CC3)CC2)C1)C(C)C", "pIC50", 4.40),
]

---

# Tested on: MV4-11
# protocol: Antiproliferative activity against human MV4-11 cells
# Format: functional
Measured GI50 by item

# chemical string, GI50 [nM]
data = [
    ("COC(=O)N[C@H]1CCC[C@@H]1[C@](C#N)(c1cccc(F)c1)C1CCN(CC2CN(c3ccc(S(=O)(=O)C4CN(C(=O)/C=C/CN(C)C)C4)cc3)C2)CC1", 2.7),
    ("CC(C)N(C(=O)c1cc(F)ccc1Oc1cncnc1N1CC2(CCN(C[C@H]3CC[C@H](NS(C)(=O)=O)CC3)CC2)C1)C(C)C", 17),
    ("CCCc1cc2c(N3CCN(C4=NCC(C)(C)S4)CC3)ncnc2s1", 9500),
    ("CNc1nc(NC2CCN(Cc3ccc4c(cc(C#N)n4CC45CC(NC=O)(C4)C5)c3C)CC2)c2cc(CC(F)(F)F)sc2n1", 7.6),
]

---

bioavailability listing for selected compounds.
# protocol: Oral bioavailability in mouse
# Assay type: ADME, organism-based
# conditions used: in vivo

# chemical string, unit tag, bioavailability
records = [
    ("Cc1c(CN2CCC(Nc3ncnc4sc(CC(F)(F)F)cc34)CC2)ccc2[nH]c(C#N)cc12", "%", 44),
    ("Cc1c(CN2CCC(Nc3ncnc4sc(CC(F)(F)F)cc34)CC2)ccc2c1cc(C#N)n2Cc1cn[nH]c1", "%", 73),
]
